Assay remarks: AUC (0 to t) in Sprague-Dawley rat at 10 mg/kg, iv measured after 24 hrs by LC-MS/MS analysis
Format: ADME, organism-based
Set-up: route intravenous, time 24 hrs, dose 10 mg/kg
Experimental setup: in vivo
Parameter measured: AUC(0-t) at 24 h (ng·h/mL)
Hi! Could you send only the number? It should be in ng·h/mL, unit omitted.

### Prompt So what does the record say about AUC(0-t) at 24 h for CC(C)(C)OC(=O)N1CCC2(C(=O)Nc3ccccc32)C1c1cccc(Nc2ccc(CO)c(S(C)(=O)=O)c2)c1 (racemic) ?
### Response 1250

* * *

Assay remarks: Half life in Sprague-Dawley rat at 10 mg/kg, iv measured after 24 hrs by LC-MS/MS analysis
Assay type: ADME, organism-based
Experimental setup: in vivo
Parameter measured: half-life
Lab note: write values as number then unit, every time.

### Prompt So what does the record say about half-life for CC(C)(C)OC(=O)N1CCC2(C(=O)Nc3ccccc32)C1c1cccc(Nc2ccc(CO)c(S(C)(=O)=O)c2)c1 (racemic) ?
### Response 2.98 h
